The values you see were collected from paper PMC9311615.

- test_summary: clinical
- experimental_setup: human, in vivo
observable: Vd (L)
Supply the numeric figure in L, leaving out any unit text.

Query :: Vd lookup needed for CCCCCCCCCC(=O)N[C@@H](Cc1c[nH]c2ccccc12)C(=O)N[C@H](CC(N)=O)C(=O)N[C@@H](CC(=O)O)C(=O)N[C@@H]1C(=O)NCC(=O)N[C@@H](CCCN)C(=O)N[C@@H](CC(=O)O)C(=O)N[C@H](C)C(=O)N[C@@H](CC(=O)O)C(=O)NCC(=O)N[C@H](CO)C(=O)N[C@@H]([C@H](C)CC(=O)O)C(=O)N[C@@H](CC(=O)c2ccccc2N)C(=O)O[C@@H]1C , thanks.
Result :: 10.9
